Listed here: items and their measured protein stability index.
B1: TMEM106C (parent)
chain: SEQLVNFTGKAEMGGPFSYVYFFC

- Variants of: B1
- experiment notes: protein stability index of a GFP-peptide fusion (GPS, HEK-293T) (PSI 1-6); higher = more stable;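 also: lentivirally expressed fusions sorted by FACS into six bins by GFP to DsRed ratio, PSI derived from sequencing read proportions per bin multiplied by bin number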
- measurement conditions: c terminus: a fixed tail appended
assay metric: protein stability index

INSERT INTO assay_data (variant_key, assay_metric, quantitative_readout) VALUES
  ('K10T', 'protein stability index', 3.48),
  ('V5R', 'protein stability index', 2.8),
  ('T8I', 'protein stability index', 3.12),
  ('A11Q', 'protein stability index', 3.25),
  ('G9H', 'protein stability index', 3.07),
  ('Y21H', 'protein stability index', 2.26),
  ('T8C', 'protein stability index', 3.08),
  ('M13N', 'protein stability index', 2.69),
  ('Y19H', 'protein stability index', 3.66),
  ('K10W', 'protein stability index', 3.18),
  ('T8E', 'protein stability index', 2.29),
  ('S1M', 'protein stability index', 3.28),
  ('F7V', 'protein stability index', 2.45),
  ('K10I', 'protein stability index', 3.15),
  ('F22Y', 'protein stability index', 2.78),
  ('Y19A', 'protein stability index', 2),
  ('F22R', 'protein stability index', 2.28);
